Source listed as patent US12116343B2.

# Tested On: G1 APOL1 (Homo sapiens, UniProt O14791, I384M/S342G)
# Construct: expressed in transfected cells
# Test: Acute APOL1 Thallium Assay with inducible stable clones of HEK 293 cells
# Type: cell-based
# Protocol Conditions: HEK 293 T-Rex cells expressing G1 APOL1; read-out: Thallium Assay (IC50)
Property: IC50; scope: individual molecules

# Molecule, IC50
rows = [
    ("O=C([C@H]1C[C@H](c2c(-c3ccc(F)cc3)[nH]c3c(F)cc(F)cc32)C1)N1CCC[C@H]1CO", "> 1 µM"),
    ("O=C([C@H]1C[C@H](c2c(-c3ccc(F)cc3)[nH]c3c(F)cc(F)cc32)C1)N1CCCCC1CO (stereo partly shown)", "> 1 µM"),
    ("O=C([C@H]1C[C@@H](c2c(-c3ccc(F)cc3)[nH]c3c(F)cc(F)cc32)C1)N1C[C@@H](O)[C@H](O)C1", "> 1 µM"),
    ("CNC(=O)C(C)NC(=O)[C@H]1C[C@H](c2c(-c3ccc(F)cc3)[nH]c3c(F)cc(F)cc32)C1 (mixture of isomers)", "0.25 to 1 µM"),
    ("O=C(NCc1nnco1)[C@H]1C[C@H](c2c(-c3ccc(F)cc3)[nH]c3c(F)cc(F)cc32)C1", "0.25 to 1 µM"),
    ("O=C(NCCn1cccc1)[C@H]1C[C@H](c2c(-c3ccc(F)cc3)[nH]c3c(F)cc(F)cc32)C1", "> 1 µM"),
    ("COCc1cc(CNC(=O)[C@H]2C[C@H](c3c(-c4ccc(F)cc4)[nH]c4c(F)cc(F)cc43)C2)n[nH]1", "> 1 µM"),
    ("C[C@H](O)[C@@H](CO)NC(=O)[C@H]1C[C@H](c2c(-c3ccc(F)cc3)[nH]c3c(F)cc(F)cc32)C1", "< 0.25 µM"),
    ("O=C([C@H]1C[C@H](c2c(-c3ccc(F)cc3)[nH]c3c(F)cc(F)cc32)C1)N1CCOC[C@H]1CO", "> 1 µM"),
    ("O=C(NCC(O)CO)[C@H]1C[C@H](c2c(-c3ccc(F)cc3)[nH]c3c(F)cc(F)cc32)C1 (stereo partly shown)", "0.25 to 1 µM"),
    ("Cn1ncc(CNC(=O)[C@H]2C[C@H](c3c(-c4ccc(F)cc4)[nH]c4c(F)cc(F)cc43)C2)n1", "0.25 to 1 µM"),
    ("CC(C#N)(CO)NC(=O)[C@H]1C[C@H](c2c(-c3ccc(F)cc3)[nH]c3c(F)cc(F)cc32)C1 (stereo partly shown)", "0.25 to 1 µM"),
    ("CC[C@H](CO)NC(=O)[C@H]1C[C@H](c2c(-c3ccc(F)cc3)[nH]c3c(F)cc(F)cc32)C1", "0.25 to 1 µM"),
    ("O=C(N[C@H]1CNC[C@@H]1O)[C@H]1C[C@H](c2c(-c3ccc(F)cc3)[nH]c3c(F)cc(F)cc32)C1", "> 1 µM"),
    ("C[C@@H](CO)NC(=O)[C@H]1C[C@H](c2c(-c3ccc(F)cc3)[nH]c3c(F)cc(F)cc32)C1 [Compound 200]", "< 0.25 µM"),
    ("NC(=O)[C@H]1CCN(C(=O)[C@H]2C[C@H](c3c(-c4ccc(F)cc4)[nH]c4c(F)cc(F)cc43)C2)C1", "> 1 µM"),
]

---

Property: IC50; scope: individual compounds
# Tested On: APOL1 G1 Protein (Homo sapiens, UniProt O14791, I384M/S342G)
# Sequence (O14791 28-398 S342G/I384M): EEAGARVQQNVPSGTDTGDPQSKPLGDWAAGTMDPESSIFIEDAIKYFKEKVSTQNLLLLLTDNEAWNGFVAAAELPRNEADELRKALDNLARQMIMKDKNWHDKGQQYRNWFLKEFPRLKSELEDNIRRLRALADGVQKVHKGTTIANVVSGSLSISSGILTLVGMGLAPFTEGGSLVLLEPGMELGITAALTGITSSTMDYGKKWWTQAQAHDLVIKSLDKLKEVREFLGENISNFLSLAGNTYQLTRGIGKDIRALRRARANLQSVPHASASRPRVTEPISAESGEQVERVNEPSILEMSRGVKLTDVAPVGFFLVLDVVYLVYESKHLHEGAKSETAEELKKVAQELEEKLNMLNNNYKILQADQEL
# Test: Trypanosoma brucei brucei lysis assay using APOL1 recombinant protein (AlamarBlue viability)
# Format: cell-based
# Protocol Conditions: Trypanosoma brucei brucei lysis, recombinant APOL1, AlamarBlue; read-out: Trypanosoma Assay (IC50)

# Compound, IC50
records = [
    ("CN(CC(C)(C)O)C(=O)[C@H]1C[C@H](c2c(-c3ccc(F)cc3)[nH]c3c(F)cc(F)cc32)C1 [Compound 93]", "> 1000 nM"),
    ("O=C1CN(C(=O)[C@H]2C[C@H](c3c(-c4ccc(F)cc4)[nH]c4c(F)cc(F)cc43)C2)CCN1 [Compound 228]", "> 1000 nM"),
    ("Cc1cc(CNC(=O)[C@H]2C[C@H](c3c(-c4ccc(F)cc4)[nH]c4c(F)cc(F)cc43)C2)nn1C [Compound 73]", "250 to 1000 nM"),
    ("C[C@H](CO)N(C)C(=O)[C@H]1C[C@H](c2c(-c3ccc(F)cc3)[nH]c3c(F)cc(F)cc32)C1 [Compound 142]", "< 250 nM"),
    ("Cc1cc(CNC(=O)[C@H]2C[C@H](c3c(-c4ccc(F)cc4)[nH]c4c(F)cc(F)cc43)C2)on1 [Compound 37]", "250 to 1000 nM"),
    ("O=C(NCCOCCO)[C@H]1C[C@H](c2c(-c3ccc(F)cc3)[nH]c3c(F)cc(F)cc32)C1 [Compound 125]", "< 250 nM"),
    ("CS(=O)(=O)CCNC(=O)[C@H]1C[C@H](c2c(-c3ccc(F)cc3)[nH]c3c(F)cc(F)cc32)C1 [Compound 40]", "> 1000 nM"),
    ("O=C(NC(CO)C1CC1)[C@H]1C[C@H](c2c(-c3ccc(F)cc3)[nH]c3c(F)cc(F)cc32)C1 (stereo partly drawn) [Compound 199]", "250 to 1000 nM"),
    ("O=C(NCc1cocn1)[C@H]1C[C@H](c2c(-c3ccc(F)cc3)[nH]c3c(F)cc(F)cc32)C1 [Compound 168]", "< 250 nM"),
    ("CC(O)(CO)CNC(=O)[C@H]1C[C@H](c2c(-c3ccc(F)cc3)[nH]c3c(F)cc(F)cc32)C1 (mixture of isomers) [Compound 216]", "> 1000 nM"),
    ("NC(=O)[C@@H]1CCN(C(=O)[C@H]2C[C@H](c3c(-c4ccc(F)cc4)[nH]c4c(F)cc(F)cc43)C2)C1 [Compound 135]", "> 1000 nM"),
    ("C[C@H](NC(=O)[C@H]1C[C@H](c2c(-c3ccc(F)cc3)[nH]c3c(F)cc(F)cc32)C1)C(=O)N(C)C [Compound 65]", "250 to 1000 nM"),
    ("O=C([C@H]1C[C@H](c2c(-c3ccc(F)cc3)[nH]c3c(F)cc(F)cc32)C1)N1CCOC[C@@H]1CO [Compound 219]", "< 250 nM"),
    ("CN(C)C(=O)CN(C)C(=O)[C@H]1C[C@H](c2c(-c3ccc(F)cc3)[nH]c3c(F)cc(F)cc32)C1 [Compound 62]", "> 1000 nM"),
    ("O=C1NCCCC1NC(=O)[C@H]1C[C@H](c2c(-c3ccc(F)cc3)[nH]c3c(F)cc(F)cc32)C1 (stereo partly drawn) [Compound 23]", "250 to 1000 nM"),
    ("O=C(NCC(F)(F)F)[C@H]1C[C@H](c2c(-c3ccc(F)cc3)[nH]c3c(F)cc(F)cc32)C1 [Compound 33]", "> 1000 nM"),
    ("C[C@]1(NC(=O)[C@H]2C[C@H](c3c(-c4ccc(F)cc4)[nH]c4c(F)cc(F)cc43)C2)C[C@@H](O)C1 [Compound 211]", "250 to 1000 nM"),
    ("CC(NC(=O)[C@H]1C[C@H](c2c(-c3ccc(F)cc3)[nH]c3c(F)cc(F)cc32)C1)c1ccn(C)n1 (mixture of isomers) [Compound 75]", "< 250 nM"),
    ("O=C([C@H]1C[C@H](c2c(-c3ccc(F)cc3)[nH]c3c(F)cc(F)cc32)C1)N1C[C@@H]2[C@@H](CO)[C@@H]2C1 [Compound 99]", "> 1000 nM"),
    ("O=C1C[C@@H](NC(=O)[C@H]2C[C@H](c3c(-c4ccc(F)cc4)[nH]c4c(F)cc(F)cc43)C2)C(=O)N1 [Compound 166]", "< 250 nM"),
    ("Cn1cc(CNC(=O)[C@H]2C[C@H](c3c(-c4ccc(F)cc4)[nH]c4c(F)cc(F)cc43)C2)cn1 [Compound 38]", "250 to 1000 nM"),
    ("O=C(NC1(CO)CC1)[C@H]1C[C@H](c2c(-c3ccc(F)cc3)[nH]c3c(F)cc(F)cc32)C1 [Compound 47]", "< 250 nM"),
    ("NC(=O)C1CCN(C(=O)[C@H]2C[C@H](c3c(-c4ccc(F)cc4)[nH]c4c(F)cc(F)cc43)C2)CC1 [Compound 133]", "> 1000 nM"),
    ("O=C(NCC1(O)COC1)[C@H]1C[C@H](c2c(-c3ccc(F)cc3)[nH]c3c(F)cc(F)cc32)C1 [Compound 185]", "250 to 1000 nM"),
]
